For each entry below, report its OD405 value.
- Subject Of Test: PAP complex: preformed immune complex of peroxidase and rabbit anti-peroxidase IgG (horseradish) (UniProt P00433)
- Test Protocol: reverse ELISA competition: PAP pre-incubated with peptide, then on plate coated with FcγIIIa; signal is PAP left bound to the receptor

Qu. Which OD405 is listed for APPCAWHLGELVWCT [Peptide … (SEQ ID NO:14)] ?
Ans. 0.53 OD405

Qu. Please give the result for DCAFHLGELVWCT [Peptide … (SEQ ID NO:3)] too.
Ans. 0.81 OD405

Qu. Please give the result for APPCARHLGELVWCT [Peptide … (SEQ ID NO:16)] too.
Ans. 0.709 OD405

Qu. Please give the result for APPDCAWHLGELVWCT [Peptide … (SEQ ID NO:20)] too.
Ans. 0.67 OD405

Qu. Please give the result for APPCAFHLGELVWCT [Peptide … (SEQ ID NO:18)] too.
Ans. 0.88 OD405
